assay.target: catalytic domain of human PARP14 (Homo sapiens (Human), UniProt Q460N5)
Sequence (Q460N5 1611-1801): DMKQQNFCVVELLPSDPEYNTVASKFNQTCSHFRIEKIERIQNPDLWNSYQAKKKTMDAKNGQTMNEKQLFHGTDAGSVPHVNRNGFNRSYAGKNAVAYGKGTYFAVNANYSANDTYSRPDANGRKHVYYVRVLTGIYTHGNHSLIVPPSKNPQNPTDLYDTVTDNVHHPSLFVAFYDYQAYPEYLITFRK
assay.protocol: Enzymatic assay for inhibition of PARP14 (DELFIA, auto-modification with biotin-NAD)
measurement.setup: auto-modification of PARP14 by biotin-NAD, 50 nM PARP14, 3 μM biotin-NAD
observation.type: IC50

Past entries and their recorded results:
Cn1ccnc1Nc1ccc2c(=O)[nH]c(CSC3CCOCC3)nc2c1 | > 10000 nM
COc1ccc2nc(CSC3CCOCC3)[nH]c(=O)c2c1 | > 10000 nM

Requested field: IC50. Item: CC1(C)CC(SCc2nc3cc(OCC4CCC4)cc(F)c3c(=O)[nH]2)CCO1 (stereo not drawn)
< 1000 nM

IC50 lookup needed for `O=c1[nH]c(CS[C@H]2CC[C@@H](O)CC2)nc2cc(OCC3CCOCC3)cc(F)c12` , thanks.
< 1000 nM

Would you mind telling me what IC50 value was observed for N#Cc1cc(OCC2CCOC2)cc2nc(CSC3CCOCC3)[nH]c(=O)c12 (stereo not drawn) ?
< 1000 nM

Item `O=C(Nc1ccccc1)c1ccc2c(=O)[nH]c(CSC3CCOCC3)nc2c1` has what recorded IC50?
> 10000 nM

Entry `O=c1[nH]c(CSC2CCOCC2)nc2cc(F)ccc12` has what IC50?
1000 to 10000 nM

Which IC50 value belongs to C[C@]1(O)CC[C@H](SCc2nc3cc(OCC4CCOC4)cc(F)c3c(=O)[nH]2)CC1 (stereo partly drawn) ?
< 1000 nM

Would you kindly share the measured IC50 for `CO[C@H]1C[C@@H](Nc2cc3nc(CS[C@H]4CC[C@H](NC(C)=O)CC4)[nH]c(=O)c3c(F)c2F)C1` ?
< 1000 nM
